Provenance of the data: patent US20210317231A1

- experimental-system: T1, human 5T4 oncofoetal antigen (human, UniProt Q13641 32-420)
- T1 construct: whole, on cells; also called hu 5T4; human 5T4 antigen
- T1 sequence (looked up): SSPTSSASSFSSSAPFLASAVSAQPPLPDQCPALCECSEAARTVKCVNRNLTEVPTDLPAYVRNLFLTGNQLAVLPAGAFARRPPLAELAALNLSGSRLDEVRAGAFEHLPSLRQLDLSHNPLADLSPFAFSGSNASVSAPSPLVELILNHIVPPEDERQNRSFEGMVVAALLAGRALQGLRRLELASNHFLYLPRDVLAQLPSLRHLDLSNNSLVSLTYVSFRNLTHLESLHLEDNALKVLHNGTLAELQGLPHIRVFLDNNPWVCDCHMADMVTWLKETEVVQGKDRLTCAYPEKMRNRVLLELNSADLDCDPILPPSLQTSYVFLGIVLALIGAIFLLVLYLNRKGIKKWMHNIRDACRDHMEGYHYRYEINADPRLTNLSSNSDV
- protocol-details: flow cytometry, MDA-MB-468 cells
measure: EC50
Include the unit after the number when you answer.

Below, each entry is followed by its recorded EC50 result.
binder	EC50
chimeric anti-5T4 monoclonal antibody 847 (antibody, human IgG1, V domains shown) VH: QSVEESGGRLVTPGTPLTLTCTVSGFSLSSYDMSWVRQAPGKGLEYIGYINSDGSAYYASWAKGRFTISKTSSTTVDLKITSPTTEDTATYFCARDAGSTYLYGMDPWGPGTLVTVSS VL: DVVMTQTPASVSEPVGGTVTINCQASQSIYSYLAWYQQKPGQRPKLLIYAASTLASGVSSRFKGSGSGTQFTLTISDLESADAATYYCQCTYYGGTFNTFGGGTEVVVK	0.2 µg/mL
chimeric anti-5T4 monoclonal antibody 843 (antibody, human IgG1, V domains shown) VH: QSLEESGGRLVTPGTPLTLTCTASGFSLNNAYMNWVRQAPGKGLEWIGIINTYGSTYFATWAKGRFTFSKTSTTVDLKITSPTTEDTATYFCARAYAPFSTYSHYYGMDLWGPGTLVTVSS VL: DVVMTQTPSSVSAAVGGTVTIKCQASESIGSWLSWYQQKPGQPPKLLIYEASKLTSGVPSRFKGSGSGTEYTLTISDLESADAATYYCQYTDYGSNYLGTFGGGTEVVVK	0.08 µg/mL
chimeric anti-5T4 monoclonal antibody 828 (antibody, human IgG1, V domains shown) VH: QSVEESGGRLVTPGTPLTLTCTVSEIDLSTYAMSWVRQAPGKGLEWIGIISAGGSAYYASWAKGRFTISRTSTTVDLKMTSLTTEDTATYFCARGAAYAGYTYGFSFFDIWGPGTLVTVSL VL: DIVMTQTPSSVSAAVGGTVTINCQASQNIYSNLAWYQQKPGQRPKLLIYGASNLESGVPSRFKGSGSGTEYTLTISDLESDDAATYYCQSIDYGNNYLGSFGGGTEVVVK	0.1 µg/mL

Kindly review the next binder as well.
Task: # lookup: EC50 of chimeric anti-5T4 monoclonal antibody 811 (antibody, human IgG1, V domains shown) VH: QSVEESGGRLVTPGTSLTLTCTASGFSLSTYAMIWVRQAPGKGLEWIGIINSSGYTYYANWAKGRFTISKTSTTVDLKITSPTTEDTATYFCARGNAGISYDVSFNLWGQGTLVTVSS VL: AYDMTQTPASVEAGVGGTVTINCQASESISSWLAWYQQKPGQPPNLLIYEASKLASGVPSRFSGSGSGTEFTLTISGVESADAATYYCQQGWTSSNIDNAFGGGTEVVVK
Result: 0.73 µg/mL
